# condition-description: in water, 293.2 K
readout-type: solubility (mole fraction)
Note: the reply should be a number with no unit written.

Annotate the compound "O=C1NC(=O)C(c2ccccc2)(c2ccccc2)N1" with its measured solubility (mole fraction).
1.29e-06

###

# condition-description: in n-propanol, 293.2 K
readout-type: solubility (mole fraction)
Note: the reply should be a number with no unit written.

Annotate the molecule "O=C1NC(=O)C(c2ccccc2)(c2ccccc2)N1" with its measured solubility (mole fraction).
0.00263

###

# condition-description: in n-propanol, 313.2 K
readout-type: solubility (mole fraction)
Note: the reply should be a number with no unit written.

Annotate the compound "O=C1NC(=O)C(c2ccccc2)(c2ccccc2)N1" with its measured solubility (mole fraction).
0.00396
